Target: T1, human SIRPγ on stably transfected CHO cells (human, UniProt Q9P1W8 29-387)
T1 construct: also called Human SIRPγ CHO
T1 sequence (Q9P1W8 29-387 limits assumed): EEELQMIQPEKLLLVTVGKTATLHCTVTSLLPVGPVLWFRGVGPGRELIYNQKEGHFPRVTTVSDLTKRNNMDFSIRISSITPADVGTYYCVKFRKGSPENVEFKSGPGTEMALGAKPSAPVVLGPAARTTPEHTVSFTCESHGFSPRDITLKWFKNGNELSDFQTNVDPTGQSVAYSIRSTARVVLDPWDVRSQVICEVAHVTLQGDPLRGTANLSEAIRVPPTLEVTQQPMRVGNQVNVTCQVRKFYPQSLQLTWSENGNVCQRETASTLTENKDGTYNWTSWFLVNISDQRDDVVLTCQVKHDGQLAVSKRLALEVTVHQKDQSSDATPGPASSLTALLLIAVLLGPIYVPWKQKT
Assay: flow cytometry, myc-scFv PPE
attribute.measured: MFI fold change over parental CHO (fold)
Write the value in fold as a bare number.

Check out these entries, answers already filled in.
Antibody 53 (scFv, V domains shown, scFv in crude PPE, V5/myc-tagged) VH: QVQLVQSGAEVKKPGASVKVSCKASGHTFNNNYIHWVRQAPGQGLEWMGIINPSGGSTSYAQKFQGRVTMTRDTSTSTVYMELSSLRSEDTAVYYCARQIQDYGYYYYGMDVWGQGTTVTVSS VL: EIVMTQSPATLSVSPGERATLSCRASQSVSKYLAWYQQKPGQAPRLLIYAISARAAGIPARFSGSGSGTEFTLTISSLQSEDFAVYYCQQYYSSPPTFGQGTKVEIK: 5.97
Antibody 19 (scFv, V domains shown, scFv in crude PPE, V5/myc-tagged) VH: QVQLVQSGAEVKKPGASVKVSCKASGYTFTAYYMHWVRQAPGQGLEWMGIINPSGGSTSYAQKFQGRVTMTRDTSTSTVYMELSSLRSEDTAVYYCARDSGWYAPGYYYGMDVWGQGTTVTVSS VL: DIQMTQSPSSLSASVGDRVTITCRASESISHWLAWYQQKPGKAPKLLIYGASTLQSGVPSRFSGSGSGTDFTLTISSLQPEDFATYYCQQSYTPPLTFGGGTKVEIK: 43.3

*Q* Please look at this binder and report its MFI fold change over parental CHO: Antibody 26 (scFv, V domains shown, scFv in crude PPE, V5/myc-tagged) VH: QVQLVQSGAEVKKPGASVKVSCKASGYTFTSYYMHWVRQAPGQGLEWMGRINPNSGGTKYAQKFQGRVTMTRDTSTSTVYMELSSLRSEDTAVYYCARLGSAYFDLWGRGTLVTVSS VL: DIQMTQSPSSLSASVGDRVTITCRASQSVDTWLAWYQQKPGKAPKLLIYEASTLESGVPSRFSGSGSGTDFTLTISSLQPEDFATYYCQQANSFPITFGQGTRLEIK
*A* 28.4

*Q* Provide only the value of recorded MFI fold change over parental CHO for Antibody 44 (scFv, V domains shown, scFv in crude PPE, V5/myc-tagged) VH: QVQLVQSGAEVKKPGSSVKVSCKASGGTFSKIAVSWVRQAPGQGLEWMGLINPNSGGTDYAQKFQGRVTITADESTSTAYMELSSLRSEDTAVYYCAKDFRGGDYYYYGMDVWGQGTTVTVSS VL: EIVMTQSPATLSVSPGERATLSCRASQSVSSNLAWYQQKPGQAPRLLIYGASTRATGIPARFSGSGSGTEFTLTISSLQSEDFAVYYCQQYNTYPITFGQGTKVEIK
*A* 16

*Q* Return the recorded MFI fold change over parental CHO value; entry: Antibody 51 (scFv, V domains shown, scFv in crude PPE, V5/myc-tagged) VH: QVQLVQSGAEVKKPGASVKVSCKASGYTFTRYDINWVRQAPGQGLEWMGWMNPNSGNTGYAQKLQGRVTMTRDTSTSTVYMELSSLRSEDTAVYYCARERVGYCSSTSCLHPLDYWGQGTLVTVSS VL: DIQMTQSPSSLSASVGDRVTITCRASQGIRNDLGWYQQKPGKAPKLLIYSASNLQSGVPSRFSGSGSGTDFTLTISSLQPEDFATYYCQQSYDVPLTFGGGTKVEIK
*A* 20

*Q* Check the records and state MFI fold change over parental CHO for Antibody 27 (scFv, V domains shown, scFv in crude PPE, V5/myc-tagged) VH: QVQLVQSGAEVKKPGASVKVSCKASGYTFTSHDINWVRQAPGQGLEWMGWMNANNGNAGYAQKFQGRVTMTRDTSTSTVYMELSSLRSEDTAVYYCAKDLSPSSSWSTYYYYYGMDVWGQGTMVTVSS VL: DIQMTQSPSSLSASVGDRVTITCRASQSISNLLAWYQQKPGKAPKLLIYAASSLQSGVPSRFSGSGSGTDFTLTISSLQPEDFATYYCQQSYSTPYTFGQGTKLEIK
*A* 23.2

*Q* Provide only the value of recorded MFI fold change over parental CHO for Antibody 24 (scFv, V domains shown, scFv in crude PPE, V5/myc-tagged) VH: QVQLVQSGAEVKKPGASVKVSCKASGYTFTGYYMHWVRQAPGQGLEWMGIINPSGGSTNYAQKFQGRVTMTRDTSTSTVYMELSSLRSEDTAVYYCARGPIGYGMDVWGQGTLVTVSS VL: DIQMTQSPSSLSASVGDRVTITCRASQGIGNDLGWYQQKPGKAPKLLIYAASNLETGVPSRFSGSGSGTDFTLTISSLQPEDFATYYCLQHHSYPFTFGQGTKLEIK
*A* 11.1

*Q* State its MFI fold change over parental CHO for this binder: Antibody 34 (scFv, V domains shown, scFv in crude PPE, V5/myc-tagged) VH: QVQLVQSGAEVKKPGASVKVSCKASGYTFSNYYMHWVRQAPGQGLEWMGWMNPNSGNTGYAQKFQGRVTMTRDTSTSTVYMELSSLRSEDTAVYYCARASMYSSSGFDYWGQGTLVTVSS VL: DIVMTQSPLSLPVTPGEPASISCRSSQSLLHSNGYNYLDWYLQKPGQSPQLLIYLASTRAPGVPDRFSGSGSGTDFTLKISRVEAEDVGVYYCMQGSHWPPSFGQGTRLEIK
*A* 18.7

*Q* Input Antibody 32 (scFv, V domains shown, scFv in crude PPE, V5/myc-tagged) VH: QVQLVQSGAEVKKPGASVKVSCKASGYTFTSYYMYWVRQAPGQGLEWMGWINPNSGNTGYAQKFQGRVTMTRDTSTSTVYMELSSLRSEDTAVYYCAKDRRRGVGLAAAGTSAFDIWGQGTMVTVSS VL: DIQMTQSPSSLSASVGDRVTITCRASQSISNWLAWYQQKPGKAPKLLIYAASSLQSGVPSRFSGSGSGTDFTLTISSLQPEDFATYYCQQSYSTPYTFGQGTKLEIK , output reported MFI fold change over parental CHO.
*A* 10.2

*Q* Output MFI fold change over parental CHO of Antibody 21 (scFv, V domains shown, scFv in crude PPE, V5/myc-tagged) VH: EVQLLESGGGLVQPGGSLRLSCAASGFTLGSYWMHWVRQAPGKGLEWVSLISWDGGSTYYADSVKGRFTISRDNSKNTLYLQMNSLRAEDTAVYYCAKGPWVGYSGYDLNYYYYGMDVWGQGTTVTVSS VL: DIQMTQSPSSLSASVGDRVTITCRASQDIRRALAWYQQKPGKAPKLLIYAASSLQSGVPSRFSGSGSGTDFTLTISSLQPEDFATYYCLQHNSYPPTFGQGTKLEIK
*A* 51.4
